Measured GFP response, % of DMSO, listed per entry for reference.
assay: TOR pathway CIT2 reporter hit retest – S. cerevisiae, GFP fusion, cherry picks, mother/daughter gates, confirmation (AID 2274); settings: S. cerevisiae CIT2-GFP strain, flow cytometry, 3 h; measured here: daughter cell gate; at 10 µM; stronger effect = higher value
Supply the numeric figure in %, leaving out any unit text.

Consider the worked cases shown below.
c1cnc2c(c1)ccc1cccnc12	117
C[C@H]1C[C@@H]2[C@H]([C@@H](O)C[C@@]3(C)[C@H]2CC[C@]3(O)C(=O)CO)[C@@]2(C)C=CC(=O)C=C12	99.1
C[C@]12CCC(=O)C=C1[C@H](O)C[C@@H]1[C@@H]2[C@@H](O)C[C@@]2(C)[C@H]1CC[C@]2(O)C(=O)CO	104
CN(C)CCN(Cc1ccccc1)c1ccccn1	99.1
CCOc1nnc(C)c2c(C)n(-c3cccc(OC)c3)nc12	105
COc1cccc2sc(Nc3nc(-c4ccccn4)cs3)nc12	99.7
COC(=O)c1ccc2nc(Nc3nc4c(F)cc(F)cc4s3)sc2c1	98.4
C[C@]12CC[C@@H]3c4ccc(O)cc4C(=O)C[C@H]3[C@@H]1CC[C@@H]2O	108

Query `CCN(CC)c1ccc2cc(-c3nc(-c4ccc(OC)cc4)cs3)c(=O)oc2c1` yields GFP response, % of DMSO of 152

Query `CN(C)c1ccc(/C=C/C(=O)c2cccc(Br)c2)cc1` yields GFP response, % of DMSO of 97.4

Query `O=C1c2ccccc2-c2onc3ccc(Oc4ccccc4)c1c23` yields GFP response, % of DMSO of 94.8
